Origin of values: ChEMBL document CHEMBL4219040

- PROTOCOL: Toxicity in ip dosed formalin-induced pain mouse model
- Assay type: organism-based
- EXPERIMENTAL_PARAMETERS: in vivo
PARAMETER: MTD (mg/kg)
Write the number in mg/kg without appending the unit.

Q. # query: MTD of entry "COc1cc(C(=O)NCC2(N(C)C)CCCC2)cc(OC)c1OCc1ccccc1"
A. 2

* * *

- SYSTEM: Glycine receptor alpha-3/beta (Homo sapiens, UniProt O75311+P48167)
- PROTOCOL: Positive allosteric modulation of human GlyRalpha3beta expressed in CHO cells assessed as potentiation of EC20 glycine-induced response at 5.9 uM by fluorescence based HTS assay
- Format: cell-based
PARAMETER: Activity

Q. # query: Activity of entry "CC(C)(C)c1cccc(C(C)(C)C)c1O"
A. 134%

Q. # query: Activity of entry "CN1C(=O)[C@@H]2CN(S(=O)(=O)c3ccc4c(c3)OCO4)C[C@@H]2c2cnccc21"
A. 94%

Q. # query: Activity of entry "O=S(=O)(NCCOc1cccc2cccnc12)c1ccccc1"
A. 65%

Q. # query: Activity of entry "O=C(O)c1ccc(C[C@H]2Sc3c(F)cccc3N(Cc3ccccc3C(F)(F)F)C2=O)cc1"
A. 52%

Q. # query: Activity of entry "CN1c2ncccc2N(Cc2ccccc2C(F)(F)F)C(=O)[C@H]1Cc1ccc(C(N)=O)cc1"
A. 28%

Q. # query: Activity of entry "O=[N+]([O-])c1cccc(S(=O)(=O)NCCOc2cccc3cccnc23)c1"
A. 23%

Q. # query: Activity of entry "CC(C)(C)c1cc(C(C)(C)C)c(O)c(C(=O)O)c1O"
A. 67%

Q. # query: Activity of entry "O=C(O)c1ccc(C[C@@H]2Sc3ccccc3N(Cc3ccccc3C(F)(F)F)C2=O)cc1F"
A. 161%

Q. # query: Activity of entry "C#Cc1cc(C(=O)OC)cc(-c2ncco2)c1"
A. 52%
